# tested.system: Trypsin (type 1× from porcine pancreas) (Sus scrofa, UniProt P00761)
# Construct: Trypsin (5 ug/ml; type 1× from porcine pancreas); purchased Sigma, St. Louis Mo; host or cells: porcine pancreas
# Sequence (P00761 9-231): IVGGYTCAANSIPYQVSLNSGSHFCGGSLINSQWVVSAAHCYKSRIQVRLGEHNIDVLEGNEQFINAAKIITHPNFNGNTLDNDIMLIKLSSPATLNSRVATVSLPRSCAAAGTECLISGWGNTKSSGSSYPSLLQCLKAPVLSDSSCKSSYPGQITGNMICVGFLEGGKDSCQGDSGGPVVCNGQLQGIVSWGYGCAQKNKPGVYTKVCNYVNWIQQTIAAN
# protocol.notes: Trypsin Assay
# Type: biochemical
# protocol.conditions: inhibitor at 100 νM
Rule: Y for % Inhibition Trpysin II (100 νM) not less than 3%, N for anything less.

Use these answered entries as a reference point.
>  <compound>
O=C(Cn1c(-c2ccc3c(c2)OCO3)c(Cl)nc(NCCc2ccncc2)c1=O)NCCc1ccncc1

>  <category.label>
Y

$$$$
>  <compound>
O=C(Cn1c(-c2cccc(Cl)c2)c(Cl)nc(NCCc2ccccc2)c1=O)NCCc1ccncc1 [Example E-0076]

>  <category.label>
Y

$$$$
>  <compound>
O=C(Cn1c(-c2ccc(Cl)cc2)c(Cl)nc(NCc2ccccc2)c1=O)NCCc1ccncc1 [Example E-0017]

>  <category.label>
N

$$$$

Qu. // inclusive: % Inhibition Trpysin II (100 νM) at least 3%? input: Cc1c(Cl)nc(NCc2ccncc2)c(=O)n1CC(=O)NCCc1ccncc1
Ans. N

Qu. Reported % Inhibition Trpysin II (100 νM) reaches at least 3% for COc1ccc(-c2c(Cl)nc(NCCc3cccc(Cl)c3)c(=O)n2CC(=O)NCCc2ccncc2)cc1 [Example E-0035] ?
Ans. N

Qu. Entry COc1ccc(-c2c(Cl)nc(NCc3ccccc3)c(=O)n2CC(=O)NCCc2cccnc2)cc1 : is its % Inhibition Trpysin II (100 νM) no less than 3%?
Ans. Y

Qu. Please tell me: is the compound Cc1c(Cl)nc(NCCc2ccncc2)c(=O)n1CC(=O)NCCc1ccncc1 at or over 3% in terms of % Inhibition Trpysin II (100 νM)?
Ans. N

Numbers sourced from patent US7119094B1.
